tested on: calpain II (m-calpain), Sus scrofa; assay: inhibitors of pig calpain II, primary screen, biochemical, fluorogenic peptide substrate, 1536-well (AID 1236); conditions: purified calpain II, 30 min, at 16 µM, hits give high values
Hit rate of the full screen: of about 220,000 compounds, about 800 (0.36%) were called active. The sample holds actives, similar compounds and a random draw of the others, so the mix is not that of the screen.
RECORDED METRIC: inhibition (%)
Field: numeric (%). Do not append units.

Task: Entry CC1(C)OC(=O)C(=CSc2ccc(C(C)(C)C)cc2)C(=O)O1 : reported inhibition = ?
Result: -10.7

Task: Now this one: CCOc1ccc(C(=O)Nc2nccs2)cc1[N+](=O)[O-]
Result: 0.78

Task: Now this one: COc1ccc(S(=O)(=O)N(CC(=O)N/N=C/c2ccccc2C(=O)O)c2ccccc2OC)cc1
Result: -1.16

Task: Now this one: NC(=O)CC[C@@H]1NC(=O)[C@H](CO)NC(=O)c2cc([N+](=O)[O-])cc(I)c2NCC[C@@H](C(N)=O)NC1=O
Result: -33.7

Task: Now this one: Cc1nn(Cc2ccc(F)cc2)c(C)c1NC(=O)c1cccnc1Cl
Result: 7.19

====

system: calpain II (m-calpain), Sus scrofa; assay: inhibitors of pig calpain II, primary screen, biochemical, fluorogenic peptide substrate, 1536-well (AID 1236); conditions: purified calpain II, 30 min, at 16 µM
In all, about 220,000 compounds went through this assay and about 800 (0.36%) were called active.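 The calls were made as follows: active = inhibition above about 50% (limit read from the data); inactive = the rest.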 The sample holds actives, similar compounds and a random draw of the others, so the mix is not that of the screen.
Hi! Could you answer with just one of these? active, inactive

Task: Tell me the recorded outcome of this test for O=C(c1cccc(S(=O)(=O)Nc2ccccc2Cl)c1)N1CCN(C(=O)c2ccco2)CC1 .
Result: inactive

Task: Now this one: Cc1cc(C(=O)OCC(=O)c2c(N)n(C)c(=O)n(C)c2=O)c(C)o1
Result: inactive

Task: Now this one: Cc1ccc2[nH]cc(CCNC(=O)c3ccc([N+](=O)[O-])cc3)c2c1
Result: inactive

Task: Now this one: Cc1ccc2nc(-c3ccccc3)cc(C(=O)O)c2c1
Result: inactive

Task: Now this one: CC(C)Oc1ccc(Cc2n[nH]c(=S)n2Cc2ccccc2)cc1Cl
Result: inactive

Task: Now this one: NS(=O)(=O)c1ccc(CNC(=O)c2cnccn2)cc1
Result: inactive

Task: Now this one: COc1ccc(C)cc1NC(=O)c1ccc(-c2ccc(C(C)=O)cc2)o1
Result: inactive

Task: Now this one: O=[N+]([O-])c1ccc(N2CCN(S(=O)(=O)c3ccc4ccccc4c3)CC2)cc1NCc1ccco1
Result: inactive

Task: Now this one: O=C(c1cccc(F)c1)N1CCN(c2ccc([N+](=O)[O-])c(N3CCCCC3)c2)CC1
Result: inactive

Task: Now this one: COc1ccc(OCC(=O)NNC(=O)c2cccc(C)c2)cc1
Result: inactive

Task: Now this one: CC1(C)CCSC(/C=C/c2ccccc2)=N1
Result: inactive

Task: Now this one: O=C(O)CCn1cc(/C=C/C(=O)c2ccc(Cl)cc2)c(-c2cccc(Br)c2)n1
Result: inactive

Task: Now this one: Cc1ccccc1C(=O)OC1OC(=O)C(Cl)=C1Nc1ccccc1 (stereo unspecified)
Result: inactive

Task: Now this one: COc1ccc(Cl)cc1NC(=O)CN(C)Cc1ccc(OC)c(OC)c1
Result: inactive

Task: Now this one: COc1ccc(C(=O)Nc2cc(C)ccc2NC(=O)COc2ccccc2)cc1
Result: active

Task: Now this one: Cn1c(N)c(C(=O)COC(=O)C23CC4CC(CC(C4)C2)C3)c(=O)n(C)c1=O
Result: active

Task: Now this one: CC(=O)N1C(C)c2ccccc2C(C)(C)CC12CCCCC2 (stereo unspecified)
Result: inactive

Task: Now this one: O=C(Cn1cncn1)N/N=C/c1c2ccccc2cc2ccccc12
Result: inactive

Task: Now this one: O=c1cc(-c2ccccc2)nc(N2CCCCC2)[nH]1
Result: inactive

Task: Now this one: COC(=O)c1sccc1NC(=O)CC1C(=O)NCCN1C(=O)Nc1ccc(F)cc1F (stereo unspecified)
Result: inactive

Task: Now this one: COc1ccc(OC(C)C(=O)Nc2cccnc2)cc1 (stereo unspecified)
Result: inactive

Task: Now this one: CC(=O)c1c(N)n(C)c(=O)n(C)c1=O
Result: inactive

Task: Now this one: Cc1coc2cc3oc(=O)c(CCC(=O)O)c(C)c3cc12
Result: inactive

Task: Now this one: c1ccc(-c2cc(N3CCCCC3)c3ccccc3n2)cc1
Result: active

Task: Now this one: Fc1c(F)c(C(F)(F)F)c(F)c(F)c1N1CCN(c2ccc3nnc(C(F)(F)F)n3n2)CC1
Result: active

Task: Now this one: CCc1ccc(OCC(=O)OCC(=O)c2c(N)n(C)c(=O)n(C)c2=O)cc1
Result: inactive

Task: Now this one: O=C(Oc1cccnc1)c1cc2ccccc2oc1=O
Result: inactive

Task: Now this one: CC(C)Oc1ccc(CCc2n[nH]c(=S)n2Cc2ccccc2)cc1
Result: active

Task: Now this one: O=C(COc1ccc(S(=O)(=O)N2CCCCC2)cc1)NCc1ccccn1
Result: inactive

Task: Now this one: O=C(Nc1ccc2c(c1)CCC2)c1cccc(S(=O)(=O)N2CCN(c3ccc(F)cc3)CC2)c1
Result: inactive

Task: Now this one: O=C1CCN(C(=O)Nc2ccccc2)N1
Result: inactive

Task: Now this one: CC(=O)c1ccc(NC(=O)C2CC(=O)Nc3nc4ccccc4n32)cc1 (stereo unspecified)
Result: inactive

Task: Now this one: CS(=O)(=O)c1ccc2nc(NC(=O)c3ccc(Cl)nc3)sc2c1
Result: inactive

Task: Now this one: CCOc1cc(/C=N/NC(=O)OC)ccc1OCCSc1ccc(Cl)cc1
Result: inactive

Task: Now this one: CC(C)C[C@H](NC(=O)[C@@H]1O[C@H]1C(=O)O)C(=O)NCCCCN=C(N)N
Result: active

Task: Now this one: FC(F)(F)c1nnc2ccc(N3CCN(c4ccccc4)CC3)nn12
Result: inactive
